System: IL-21
measurement-notes: Inhibition of cytokine release from PBMCs (HTRF)
Assay type: cell-based
conditions-used: PBMC; 10 μM; human PBMCs, PMA and ionomycin stimulated
# reported inhibition at 10 µM; entries follow
test-readout: inhibition at 10 µM (%)

1) Cc1c(C)n(CCCN2CCN(C)CC2)c2ccc(Nc3ccc(C(=O)N4CCN(CCc5cccc(F)c5)CC4)cc3)cc12	11
2) Cc1c(C)n(CCCN2CCN(C)CC2)c2ccc(Oc3cccc(C(=O)N4CCN(CCc5ccc(F)cc5)CC4)c3)cc12	19
3) COc1ccc2cc(CCN3CCN(C(=O)c4cccc(Cc5ccc6c(c5)c(C)c(C)n6CCCN5CCN(C)CC5)c4)CC3)ccc2c1	11
4) COc1ccc(CCN2CCN(C(=O)c3ccc(Cc4ccc5c(c4)c(C)c(C)n5CCCN4CCN(C)CC4)cc3)CC2)cc1	-12

---

Test system: DU145
measurement-notes: Anti-proliferative activity, cell-titre luminescent viability assay
Format: cell-based
conditions-used: 72 hours; 0.03, 0.3, 3 and 30 μM; linear regression of semi-log plots; read-out: IC50 Prostate DU145
test-readout: IC50 (µM)

1. COc1ccc(CCN2CCN(C(=O)c3ccc(Nc4ccc5c(c4)c(C)c(C)n5CCCN4CCN(C)CC4)cc3)CC2)cc1	3.6

---

System: CHLA-90
measurement-notes: Anti-proliferative activity, MTS viability assay
Assay type: cell-based
conditions-used: 72 hours exposure, read-out: IC50 Neuroblastoma CHLA-90
pIC50: −log10 of the molar value.
test-readout: pIC50

1) Cc1c(C)n(CCCN2CCN(C)CC2)c2ccc(Oc3cccc(C(=O)N4CCN(CCc5ccc(F)cc5)CC4)c3)cc12	5.37

---

Test system: IL-21
measurement-notes: Inhibition of cytokine release from PBMCs (HTRF)
Type: cell-based
conditions-used: PBMC; 1 μM; human PBMCs, PMA and ionomycin stimulated
Description: The ability of compounds 3507, 3520, 3534 and 3538 to inhibit the release of cytokines TNF-α, IFN-γ, IL-6, IL-21, IL-17A and IL-23 was evaluated in vitro (Tables 4 and 5). […] The PBMCs were then incubated at 37° C. and 5% CO2 for a further 6 hours and the cell supernatant was collected and a Homogenous Time Resolved Fluorescence (HTRF) assay was carried out following the manufacturer's instructions. […]
# reported inhibition at 1 µM; entries follow
test-readout: inhibition at 1 µM (%)

1. COc1ccc(CCN2CCN(C(=O)c3ccc(Cc4ccc5c(c4)c(C)c(C)n5CCCN4CCN(C)CC4)cc3)CC2)cc1	-13
2. COc1ccc2cc(CCN3CCN(C(=O)c4cccc(Cc5ccc6c(c5)c(C)c(C)n6CCCN5CCN(C)CC5)c4)CC3)ccc2c1	8
3. Cc1c(C)n(CCCN2CCN(C)CC2)c2ccc(Nc3ccc(C(=O)N4CCN(CCc5cccc(F)c5)CC4)cc3)cc12	-8
4. Cc1c(C)n(CCCN2CCN(C)CC2)c2ccc(Oc3cccc(C(=O)N4CCN(CCc5ccc(F)cc5)CC4)c3)cc12	5

---

# reported inhibition at 0.1 µM; entries follow
Tested on: IL-17A
measurement-notes: Inhibition of cytokine release from PBMCs (HTRF)
Assay type: cell-based
conditions-used: PBMC; 0.1 μM; human PBMCs, PMA and ionomycin stimulated
test-readout: inhibition at 0.1 µM (%)

1. Cc1c(C)n(CCCN2CCN(C)CC2)c2ccc(Nc3ccc(C(=O)N4CCN(CCc5cccc(F)c5)CC4)cc3)cc12 [Compound 3534]	1
2. COc1ccc2cc(CCN3CCN(C(=O)c4cccc(Cc5ccc6c(c5)c(C)c(C)n6CCCN5CCN(C)CC5)c4)CC3)ccc2c1 [Compound 3538]	21
3. COc1ccc(CCN2CCN(C(=O)c3ccc(Cc4ccc5c(c4)c(C)c(C)n5CCCN4CCN(C)CC4)cc3)CC2)cc1 [Compound 3520]	-11
4. Cc1c(C)n(CCCN2CCN(C)CC2)c2ccc(Oc3cccc(C(=O)N4CCN(CCc5ccc(F)cc5)CC4)c3)cc12 [Compound 3507]	2
